- System: Saccharomyces cerevisiae
- Experiment: protein stability index of tFT-peptide fusion (C-terminal peptide) (PSI (0-1 scale)); higher = more stable (slower turnover)
- Assay setup: genetic background: cdc34-1; temperature: 37 C
Response key: met means protein stability index >= 0.5; not met means protein stability index < 0.5.

Here's what some known entries look like.
| Seq text | System tested | Class |
| --- | --- | --- |
| FMANRYICQKTL | Saccharomyces cerevisiae | met |
| VFSLFLVLNYPF | Saccharomyces cerevisiae | not met |
| APLSPLLPPFLC | Saccharomyces cerevisiae | met |

Query: Hi, just wondering whether VRFGYGRIVWDI shows protein stability index of 0.5 or higher.
Reply: met

Query: # bool: protein stability index of LFVSLSFVVFLP >= 0.5
Reply: not met

Query: Answer whether protein stability index of VPGCLGRFLFFL is greater than or equal to 0.5.
Reply: met

---

Measured protein stability index of individual entries
- Tested on: Saccharomyces cerevisiae
- Experiment: protein stability index of tFT-peptide fusion (C-terminal peptide) (PSI (0-1 scale)); higher = more stable (slower turnover)
- Assay setup: genetic background: wild type; temperature: 30 C
Lab note: write the figure by itself, no unit.

In the examples that follow, each entry is paired with its recorded protein stability index.
| Seq text | System tested | protein stability index |
| --- | --- | --- |
| GCLFSVLQSPSV | Saccharomyces cerevisiae | 0.721 |
| GWTLIFGRTSEG | Saccharomyces cerevisiae | 0.678 |
| PRPAPPPPSTPP | Saccharomyces cerevisiae | 0.641 |
| PLSPFLPPPVPL | Saccharomyces cerevisiae | 0.703 |
| WLLSFLRFLVLR | Saccharomyces cerevisiae | 0.393 |
| LGRNLGKDPVEV | Saccharomyces cerevisiae | 0.593 |

Now turn to the next sequence.
Query: Specify reported protein stability index for the sequence shown: PLPPPRSSPVSS
Reply: 0.658

---

- Test system: Saccharomyces cerevisiae
- Experiment: protein stability index of tFT-peptide fusion (C-terminal peptide) (PSI (0-1 scale)); higher = more stable (slower turnover)
- Assay setup: genetic background: wild type; temperature: 30 C
Measurement label: protein stability index
Please respond with just the number, no unit label.

| Seq text | protein stability index |
| --- | --- |
| LPQSTLQENQLS [SKN7 C-terminal 12 aa] | 0.622 |

Query: Please supply the value of reported protein stability index for the item ISSGPPPRSPNK [IGO2 C-terminal 12 aa]
Reply: 0.642

Query: Give protein stability index for ELLCKGICKAAE [HEL1 C-terminal 12 aa]
Reply: 0.674

Query: Could you please provide reported protein stability index for AQQNYRLWLSSF [ICY1 C-terminal 12 aa] ? Thanks!
Reply: 0.625

Query: Supply reported protein stability index belonging to this sequence: NFTTNEYFIHTS [YNL226W C-terminal 12 aa]
Reply: 0.737

Query: Give recorded protein stability index. EPNGYIKNLKWT [RXT3 C-terminal 12 aa]
Reply: 0.633

---

- Tested on: Saccharomyces cerevisiae
- Experiment: protein stability index of tFT-peptide fusion (C-terminal peptide) (PSI (0-1 scale)); higher = more stable (slower turnover)
- Assay setup: genetic background: das1 deletion; temperature: 30 C
Below: a set of entries, each annotated with reported protein stability index.
Please state the value as a number alone, without comment.

Sample answers from the record:
| Seq text | System tested | Measurement label | Observed value |
| --- | --- | --- | --- |
| QPINLDSISDDL [DRE2 C-terminal 12 aa] | Saccharomyces cerevisiae | protein stability index | 0.707 |
| TSILEDVDGDDE [YOL050C C-terminal 12 aa] | Saccharomyces cerevisiae | protein stability index | 0.706 |
| FHTLENHLKGNS [ADR1 C-terminal 12 aa] | Saccharomyces cerevisiae | protein stability index | 0.697 |
| LERLRYLFPNYW [MEU1 C-terminal 12 aa] | Saccharomyces cerevisiae | protein stability index | 0.738 |
| HEEVKHTADTVD [CDC37 C-terminal 12 aa] | Saccharomyces cerevisiae | protein stability index | 0.711 |

Query: # assay system Saccharomyces cerevisiae: give protein stability index of AGIRKRDWDSTQ [RFM1 C-terminal 12 aa]
Reply: 0.717

Query: Output reported protein stability index of the sequence HKGNGTDKVFVF [AIM33 C-terminal 12 aa] on Saccharomyces cerevisiae.
Reply: 0.714

Query: Given LSIAAGVGFALV [GAS1 C-terminal 12 aa] , report its protein stability index on Saccharomyces cerevisiae.
Reply: 0.657

Query: Print Saccharomyces cerevisiae protein stability index for YLKNYFKTKHII [ERV25 C-terminal 12 aa] .
Reply: 0.702

Query: Look up and report measured protein stability index (Saccharomyces cerevisiae) for the following sequence: IGKQKCFIIEMR [MSY1 C-terminal 12 aa]
Reply: 0.669

Query: # return protein stability index of NVLGEPFDRYLD [UTP10 C-terminal 12 aa] (system: Saccharomyces cerevisiae)
Reply: 0.724

Query: Give protein stability index only, for NENLSNELQPSL [AME1 C-terminal 12 aa] , using Saccharomyces cerevisiae data.
Reply: 0.678

---

# reported protein stability index; entries follow
- Test system: Saccharomyces cerevisiae
- Experiment: protein stability index of tFT-peptide fusion (C-terminal peptide) (PSI (0-1 scale)); higher = more stable (slower turnover)
- Assay setup: genetic background: das1 deletion; temperature: 30 C
No unit in the answer, only the number.

Reference set (10 entries):
| Seq text | protein stability index |
| --- | --- |
| KNIPEKFKNGIF [SSP120 C-terminal 12 aa] | 0.729 |
| FAGENFHHGDKL [ENO1 C-terminal 12 aa] | 0.707 |
| EETEAQAEPVEA [RPS3 C-terminal 12 aa] | 0.687 |
| KHKNILFFNHNT [YJR162C C-terminal 12 aa] | 0.725 |
| TYRLLLRLHAQD [FAR7 C-terminal 12 aa] | 0.68 |
| AYVLFYHRVYGV [DOA4 C-terminal 12 aa] | 0.691 |
| DRVGEVFAKLFG [NNR2 C-terminal 12 aa] | 0.712 |
| IWKKVPETKRSG [VPS73 C-terminal 12 aa] | 0.707 |
| SRIQNASASGEI [TIM13 C-terminal 12 aa] | 0.685 |
| RSVGKNSEKVST [QDR1 C-terminal 12 aa] | 0.699 |

Query: Let me know recorded protein stability index for HFQYKGKPSRRF [BUB1 C-terminal 12 aa] , thanks.
Reply: 0.693

Query: Note down protein stability index recorded for KQAQEGTKNLKI [PAC10 C-terminal 12 aa]
Reply: 0.714

---

# protein stability index listing for each entry below
- Test system: Saccharomyces cerevisiae
- Experiment: protein stability index of tFT-peptide fusion (C-terminal peptide) (PSI (0-1 scale)); higher = more stable (slower turnover)
- Assay setup: genetic background: wild type; temperature: 30 C
Output spec: single numeric token, no unit.

Query: Quickly give me recorded protein stability index for PPPIPGDPTPCP
Reply: 0.667

---

- Tested on: Saccharomyces cerevisiae
- Experiment: protein stability index of tFT-peptide fusion (C-terminal peptide) (PSI (0-1 scale)); higher = more stable (slower turnover)
- Assay setup: genetic background: wild type; temperature: 30 C
The entries below are paired with their reported protein stability index.

Worked cases, answers included:
| Seq text | protein stability index |
| --- | --- |
| PPPPSPSPLPPS | 0.751 |
| VVRQADVLLGLV | 0.662 |
| RMSLGLHGVMRC | 0.683 |

Query: For the sequence PLRPPPRPRQTH , give its reported protein stability index.
Reply: 0.671

Query: Check the records and state protein stability index for PAHLFVPSSLFR
Reply: 0.702

Query: Please look at this sequence and report its protein stability index: IRSAGEKDRKRE
Reply: 0.696

Query: Please report protein stability index for the following sequence: KQANTKINSQKT
Reply: 0.712

Query: Return reported protein stability index. Input sequence: SSHWGRSRLASG
Reply: 0.674

Query: // fetch protein stability index given entry PRPLSPLPPSAL
Reply: 0.66

Query: Entry LAWLGLHERTLF needs its protein stability index filled in; supply it.
Reply: 0.685

Query: Give the reported value of protein stability index for this record: MYRSLPRLKQTY
Reply: 0.721

Query: Note down protein stability index recorded for RPPFSPPSDLPL
Reply: 0.645

Query: Annotate the sequence SLSVPPRPSSPP with its measured protein stability index.
Reply: 0.624

Query: Supply reported protein stability index belonging to this sequence: GLFFISLFFPFL
Reply: 0.575

Query: For the sequence VCTGYIAGGPVC , report protein stability index.
Reply: 0.659

---

The sequences listed here are annotated with their protein stability index.
- Test system: Saccharomyces cerevisiae
- Experiment: protein stability index of tFT-peptide fusion (C-terminal peptide) (PSI (0-1 scale)); higher = more stable (slower turnover)
- Assay setup: genetic background: wild type; temperature: 30 C
Answer with a number only.

Here are 4 sequences together with their reported answers.
| Seq text | System tested | protein stability index |
| --- | --- | --- |
| EKRRRRRQEAER | Saccharomyces cerevisiae | 0.608 |
| HPGVPGSPFLSC | Saccharomyces cerevisiae | 0.714 |
| SGWEVAGGCDNK | Saccharomyces cerevisiae | 0.692 |
| PGTRNATPRRQP | Saccharomyces cerevisiae | 0.707 |

Now examine the next entry.
Query: Retrieve protein stability index on Saccharomyces cerevisiae; query MGAAWNYANFGL
Reply: 0.701
